Each item that follows carries a reported Max growth inhibition (%).
assay target: PfRH5 from Plasmodium falciparum strain Dd2 (Plasmodium falciparum)
method: cell-based or functional assay
The answer should read as a number with its unit following.

Field: example entries. Status: answers known.
H1H29104P (antibody, V domains shown) VH: EVQLVESGGGLVQPGRSLRLSCAASGFRFDDYAMHWVRQAPGKGLEWVSGINWNSGGKGYADSVQGRFTISRDNAKNSLYLQMNSLRTEDTALYYCAKDRGIAARLLSRDAFDMWGQGTMVTVSS VL: DIQLTQSPSFLSASVGDRVTITCWASQDVSSYLAWYQQKPGKSPKLLIFAASTLQGGIPSRFSGSGSGTEFTLTISSLRPEDFATYYCQHLNTYPYTFGQGTKLEIKR ... 61.3%
H1H29127P (antibody, V domains shown) VH: QVQLVESGGGVVQPGRSLRLSCAASGFTFSSYGMHWVRQAPGKGLEWVAAIWYDGSNKYYADSVKGRFTISRDNSKNTLYLQMNSLRAEDTAVYFCARGEHYYGSGPFDPWGQGTLVTVSS VL: DIQMTQSPSSLSASVGDRVTITCRASQSISNYLNWYQQKPGKAPKLLIFAASSLQSGVPSRFSGSGSGTDFTLTISSLQPEDFATYYCQQSYSSPLTFGGGTKVEIKR ... 64.7%

Moving on to the next binder.
Using the record for H1H29100P (antibody, V domains shown) VH: QLQLQESGPGLVKPSETLSLTCTVSGGSISSSSYYWGWIRQPPGKGLEWIGIIYYSGSTYYNPSLKSRVTISVDTSKNQFSLKLSSVTAADTAVYYCARQDREALFDYWGQGTLVTVSS VL: EIVLTQSPDFQSVTPKEKVTITCRASQRIGSSLHWYQQKPDQSPKLLIKYASQSFSGVPSRFSGSGSGTDFTLTINSLEAEDAATYYCHQSSTLPTFGQGTRLEIKR , report its Max growth inhibition (%).
64.6%

# credit: patent US20210024625A1
